Values were extracted from patent US20210024639A1.

MEASURED ON: native mouse MET on living mouse cells (mouse, UniProt P16056 25-1379)
ASSAY NAME: cell-based or functional assay
For each record, write down the corresponding cell scattering score, MLP29, 3.000 nM.
Answer format: numeric, score 0-4 implied, no suffix.

input: Look up cell scattering score, MLP29, 3.000 nM: chimeric llama-human IgG1 mAb 72F8 (antibody, V domains shown) VH: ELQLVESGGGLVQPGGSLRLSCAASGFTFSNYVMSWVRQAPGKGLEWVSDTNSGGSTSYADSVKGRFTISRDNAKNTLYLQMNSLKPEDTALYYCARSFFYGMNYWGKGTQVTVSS VL: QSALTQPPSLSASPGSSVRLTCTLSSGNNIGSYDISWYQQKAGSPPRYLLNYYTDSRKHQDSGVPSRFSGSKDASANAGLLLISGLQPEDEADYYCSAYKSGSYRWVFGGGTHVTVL
output: 2

input: State the recorded cell scattering score, MLP29, 3.000 nM for this entry: chimeric llama-human IgG1 mAb 74C8 (antibody, V domains shown) VH: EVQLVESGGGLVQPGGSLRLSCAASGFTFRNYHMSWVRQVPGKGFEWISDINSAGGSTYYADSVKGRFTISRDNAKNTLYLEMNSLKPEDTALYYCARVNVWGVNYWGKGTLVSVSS VL: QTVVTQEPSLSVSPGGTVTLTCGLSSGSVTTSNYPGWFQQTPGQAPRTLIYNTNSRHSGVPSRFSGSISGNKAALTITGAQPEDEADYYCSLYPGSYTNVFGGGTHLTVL
output: 4

input: Which cell scattering score, MLP29, 3.000 nM value is on record for chimeric llama-human IgG1 mAb 71G3 (antibody, V domains shown) VH: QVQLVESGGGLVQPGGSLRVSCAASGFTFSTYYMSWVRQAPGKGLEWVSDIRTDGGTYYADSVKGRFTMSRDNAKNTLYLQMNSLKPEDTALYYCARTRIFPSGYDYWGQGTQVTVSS VL: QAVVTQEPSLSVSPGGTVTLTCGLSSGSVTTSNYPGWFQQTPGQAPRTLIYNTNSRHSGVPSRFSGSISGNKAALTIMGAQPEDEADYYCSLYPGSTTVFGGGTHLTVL ?
output: 4

input: Returns the measured cell scattering score, MLP29, 3.000 nM for the input binder. Input: chimeric llama-human IgG1 mAb 71G2 (antibody, V domains shown) VH: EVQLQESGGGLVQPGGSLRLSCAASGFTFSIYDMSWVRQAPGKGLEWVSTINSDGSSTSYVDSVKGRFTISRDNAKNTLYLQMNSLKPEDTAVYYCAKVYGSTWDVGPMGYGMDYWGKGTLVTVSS VL: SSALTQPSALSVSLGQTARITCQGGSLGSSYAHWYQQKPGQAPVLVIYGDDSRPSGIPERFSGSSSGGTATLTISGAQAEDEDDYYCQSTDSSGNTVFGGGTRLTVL
output: 4

input: Given the binder chimeric llama-human IgG1 mAb 71D4 (antibody, V domains shown) VH: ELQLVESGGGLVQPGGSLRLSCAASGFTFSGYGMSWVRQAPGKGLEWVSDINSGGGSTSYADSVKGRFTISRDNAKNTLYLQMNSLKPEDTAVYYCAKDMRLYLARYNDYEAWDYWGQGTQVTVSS VL: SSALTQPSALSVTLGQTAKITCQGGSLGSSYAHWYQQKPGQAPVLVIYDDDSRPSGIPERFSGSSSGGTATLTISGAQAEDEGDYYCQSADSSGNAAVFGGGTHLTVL , what is its reported cell scattering score, MLP29, 3.000 nM?
output: 2
